- assayed-system: ERα (Homo sapiens)
- Sequence (P03372 1-595): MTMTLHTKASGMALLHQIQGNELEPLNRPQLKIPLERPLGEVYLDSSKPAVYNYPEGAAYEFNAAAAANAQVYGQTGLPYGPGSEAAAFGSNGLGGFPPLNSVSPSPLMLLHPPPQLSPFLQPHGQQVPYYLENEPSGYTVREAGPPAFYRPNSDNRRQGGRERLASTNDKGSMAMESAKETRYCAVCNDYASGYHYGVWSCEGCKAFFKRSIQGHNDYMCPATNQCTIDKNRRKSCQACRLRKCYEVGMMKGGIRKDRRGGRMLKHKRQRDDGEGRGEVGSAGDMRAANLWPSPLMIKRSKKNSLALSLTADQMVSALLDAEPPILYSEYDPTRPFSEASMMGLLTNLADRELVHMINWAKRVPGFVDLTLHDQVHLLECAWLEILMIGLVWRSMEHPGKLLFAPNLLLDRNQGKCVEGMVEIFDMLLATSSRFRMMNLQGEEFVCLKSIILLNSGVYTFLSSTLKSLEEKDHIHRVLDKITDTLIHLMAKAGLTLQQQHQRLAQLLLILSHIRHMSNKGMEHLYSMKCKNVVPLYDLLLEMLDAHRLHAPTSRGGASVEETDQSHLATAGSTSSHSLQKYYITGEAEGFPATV
- method-summary: ERα trans-activation luciferase reporter assay in HeLa cells
- assay-context: in presence of 1 nM E2
property: antagonism of E2-stimulated luciferase expression in HeLa cells

C[C@]12CC[C@@H]3c4ccc(O)cc4C[C@@H](CCCCc4cn(-c5cc6ccc(O)cc6oc5=O)nn4)[C@H]3[C@@H]1CC[C@@H]2O [J7] ... strongest antagonists
C[C@]12CC[C@@H]3c4ccc(O)cc4C[C@@H](CCCCc4cn(CC5COc6ccccc6O5)nn4)[C@H]3[C@@H]1CC[C@@H]2O (stereo partly shown) [J9] ... strongest antagonists

* * *

- assayed-system: ERα (Homo sapiens)
- method-summary: ERα trans-activation luciferase reporter assay in MCF-7 cells
- assay-context: 100 nM derivative, compared with 1 nM E2; ERE-Elb-Luc reporter
property: ERα agonist activity (transcription of target gene) in MCF-7 cells

C[C@]12CC[C@@H]3c4ccc(O)cc4C[C@@H](CCCCc4cn(CC5COc6ccccc6O5)nn4)[C@H]3[C@@H]1CC[C@@H]2O (stereo partly drawn) ... no agonist activity
C[C@]12CC[C@@H]3c4ccc(O)cc4C[C@@H](CCCCc4cn(-c5cc6ccc(O)cc6oc5=O)nn4)[C@H]3[C@@H]1CC[C@@H]2O ... no agonist activity

* * *

- assayed-system: ERα (Homo sapiens)
- method-summary: ERα trans-activation luciferase reporter assay in MCF-7 cells
- assay-context: 100 nM derivative, compared with 1 nM E2; ERE-Elb-Luc reporter
property: ERα agonist activity (transcription of target gene) in MCF-7 cells

C[C@]12CC[C@@H]3c4ccc(O)cc4C[C@@H](CCCCC#Cc4ccc(-c5ccno5)cc4)[C@H]3[C@@H]1CC[C@@H]2O ... very poor agonists
CC(C)(C)OC(=O)N1CCN(c2ccc(C#CCCCC[C@@H]3Cc4cc(O)ccc4[C@H]4CC[C@]5(C)[C@@H](O)CC[C@H]5[C@H]34)cc2)CC1 ... very poor agonists

* * *

- assayed-system: recombinant human ERβ (Homo sapiens, UniProt Q92731)
- Sequence (Q92731 whole entry): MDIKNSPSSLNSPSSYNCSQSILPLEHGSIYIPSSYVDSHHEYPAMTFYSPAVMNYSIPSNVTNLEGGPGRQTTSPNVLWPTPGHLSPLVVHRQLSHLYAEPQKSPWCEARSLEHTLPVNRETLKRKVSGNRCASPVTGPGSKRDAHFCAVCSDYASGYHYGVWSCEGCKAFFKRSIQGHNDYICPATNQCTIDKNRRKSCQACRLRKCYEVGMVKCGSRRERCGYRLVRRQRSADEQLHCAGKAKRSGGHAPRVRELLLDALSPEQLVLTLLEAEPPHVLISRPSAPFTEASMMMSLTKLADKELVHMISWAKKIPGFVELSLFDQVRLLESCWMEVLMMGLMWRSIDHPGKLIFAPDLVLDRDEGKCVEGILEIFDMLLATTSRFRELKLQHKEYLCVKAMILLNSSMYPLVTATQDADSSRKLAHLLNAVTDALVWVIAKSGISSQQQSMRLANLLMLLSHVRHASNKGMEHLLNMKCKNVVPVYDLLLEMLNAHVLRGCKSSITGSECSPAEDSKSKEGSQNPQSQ
- method-summary: ERβ radioligand
- Format: binding
- assay-context: RBA = IC50 for E2 / IC50 for the test compound
property: ERβ RBA (%)
Provide only the numeric value, understood in %.

Ask: Give its ERβ RBA value. Item: CCOC(=O)C(Cc1ccc(C#CCCCC[C@@H]2Cc3cc(O)ccc3[C@H]3CC[C@]4(C)[C@@H](O)CC[C@H]4[C@H]23)cc1)C(=O)OCC [J8]
Reply: 5.8

Ask: Give its ERβ RBA value. Item: CC(C)(C)OC(=O)N1CCN(c2ccc(C#CCCCC[C@@H]3Cc4cc(O)ccc4[C@H]4CC[C@]5(C)[C@@H](O)CC[C@H]5[C@H]34)cc2)CC1 [J4]
Reply: 2.0

Ask: Give its ERβ RBA value. Item: C[C@]12CC[C@@H]3c4ccc(O)cc4C[C@@H](CCCCc4cn(CC5COc6ccccc6O5)nn4)[C@H]3[C@@H]1CC[C@@H]2O (stereo partly shown) [J9]
Reply: 21.1

Ask: Give its ERβ RBA value. Item: CCOC(=O)CC(=O)c1ccc(C#CCCCC[C@@H]2Cc3cc(O)ccc3[C@H]3CC[C@]4(C)[C@@H](O)CC[C@H]4[C@H]23)cc1 [J5]
Reply: 4.7

* * *

- assayed-system: ERα (Homo sapiens)
- method-summary: ERα radioligand
- Assay type: binding
- assay-context: RBA = IC50 for E2 / IC50 for the test compound
Param label: returns satisfied when ERα RBA < 3%, returns not satisfied otherwise, including exact equality.

Ask: Please determine if C[C@]12CC[C@@H]3c4ccc(O)cc4C[C@@H](CCCCc4cn(CC5COc6ccccc6O5)nn4)[C@H]3[C@@H]1CC[C@@H]2O (stereo partly shown) is below 3% in terms of ERα RBA.
Reply: not satisfied

Ask: Please determine if CCOC(=O)CC(=O)c1ccc(C#CCCCC[C@@H]2Cc3cc(O)ccc3[C@H]3CC[C@]4(C)[C@@H](O)CC[C@H]4[C@H]23)cc1 is below 3% in terms of ERα RBA.
Reply: not satisfied

Ask: Please determine if C[C@]12CC[C@@H]3c4ccc(O)cc4C[C@@H](CCCCC#Cc4ccc5ccccc5c4)[C@H]3[C@@H]1CC[C@@H]2O is below 3% in terms of ERα RBA.
Reply: not satisfied

Ask: Please determine if C[C@]12CC[C@@H]3c4ccc(O)cc4C[C@@H](CCCCC#Cc4ccc(CN5CCCCC5)cc4)[C@H]3[C@@H]1CC[C@@H]2O is below 3% in terms of ERα RBA.
Reply: satisfied

Ask: Please determine if C[C@]12CC[C@@H]3c4ccc(O)cc4C[C@@H](CCCCC#Cc4ccc(-n5cccc5)cc4)[C@H]3[C@@H]1CC[C@@H]2O is below 3% in terms of ERα RBA.
Reply: not satisfied

Ask: Please determine if CC(C)(C)OC(=O)N1CCN(c2ccc(C#CCCCC[C@@H]3Cc4cc(O)ccc4[C@H]4CC[C@]5(C)[C@@H](O)CC[C@H]5[C@H]34)cc2)CC1 is below 3% in terms of ERα RBA.
Reply: satisfied

Ask: Please determine if CCOC(=O)C(Cc1ccc(C#CCCCC[C@@H]2Cc3cc(O)ccc3[C@H]3CC[C@]4(C)[C@@H](O)CC[C@H]4[C@H]23)cc1)C(=O)OCC is below 3% in terms of ERα RBA.
Reply: not satisfied

* * *

- assayed-system: ERα (Homo sapiens, UniProt P03372)
- method-summary: ERα radioligand
- Assay type: binding
- assay-context: text summary for human ERs (ERα and ERβ)
property: RBA for human ERs

Known RBA for human ERs results, listed for orientation:
CC(C)(C)OC(=O)N1CCN(c2ccc(C#CCCCC[C@@H]3Cc4cc(O)ccc4[C@H]4CC[C@]5(C)[C@@H](O)CC[C@H]5[C@H]34)cc2)CC1 [J4] ... approximately 1 % of E2
C[C@]12CC[C@@H]3c4ccc(O)cc4C[C@@H](CCCCc4cn(CC5COc6ccccc6O5)nn4)[C@H]3[C@@H]1CC[C@@H]2O (some centres unmarked) [J9] ... > 20 % of E2
C[C@]12CC[C@@H]3c4ccc(O)cc4C[C@@H](CCCCC#Cc4ccc(-c5ccno5)cc4)[C@H]3[C@@H]1CC[C@@H]2O [J3] ... approximately 1 % of E2
C[C@]12CC[C@@H]3c4ccc(O)cc4C[C@@H](CCCCC#Cc4ccc(CN5CCCCC5)cc4)[C@H]3[C@@H]1CC[C@@H]2O [J6] ... approximately 1 % of E2

Turning now to a further compound:
Ask: Give its RBA for human ERs value. Item: C[C@]12CC[C@@H]3c4ccc(O)cc4C[C@@H](CCCCC#Cc4ccc(-n5cccc5)cc4)[C@H]3[C@@H]1CC[C@@H]2O [J1]
Reply: > 20 % of E2
